Tested on: A549 NSCLC
Experiment: NCI tumour cell line growth inhibition, 48 h; in the data active means GI50 below about 0.43 µM; inactive means the rest
Would you mind answering with one of these outcomes? active, inactive

[
  {
    "Chemical string": "N#Cc1cc2c(cc1Cl)SC(=Nc1ccccc1)N(S(=O)(=O)c1ccc(Br)s1)S2(=O)=O",
    "Label": "inactive"
  },
  {
    "Chemical string": "CN(C)CCOc1ccc2c(c1)C(=O)/C(=C\\c1ncc([N+](=O)[O-])n1C)C2",
    "Label": "active"
  },
  {
    "Chemical string": "CCOC(=O)N(O)c1ccc(/C=C/c2ccccc2)cc1",
    "Label": "inactive"
  }
]

Returns: the outcome recorded for `O=C(/C=C/c1ccc(Cl)cc1Cl)c1ccc(Cl)cc1Cl` in this assay.
inactive

###

Reported TGI values for the following compounds.
System: OVCAR-8 ovarian
Experiment: NCI tumour cell line growth inhibition, 48 h

[
  {
    "Compound": "Cc1cc(S(=O)(=O)Nc2n[nH]c(Nc3ccccc3)n2)c(SSc2cc(Cl)c(C)cc2S(=O)(=O)Nc2n[nH]c(Nc3ccccc3)n2)cc1Cl",
    "Quantity kind": "TGI",
    "Result": "> 100 µM"
  },
  {
    "Compound": "C=C1CC(O)C2C(=C)C(=O)OC2C2C(C)C(=O)CC12 (configuration not stated)",
    "Quantity kind": "TGI",
    "Result": "50.9 µM"
  },
  {
    "Compound": "COc1ccc(/N=N/C(=NNC(=O)c2ccc(C)cc2)c2ccc(N(C)C)cc2)cc1",
    "Quantity kind": "TGI",
    "Result": "> 100 µM"
  },
  {
    "Compound": "Cc1nccn1S(=O)(=O)c1ccc(Cl)cc1",
    "Quantity kind": "TGI",
    "Result": "> 100 µM"
  }
]

Give its TGI value. Item: COC(=O)C(=O)C(C#N)c1c(Cl)cccc1Cl (configuration not stated)
> 100 µM

Try this compound too: `CC[C@@H](C(=O)[C@@H](C)[C@@H](O)[C@H](C)[C@@H]1O[C@@H]([C@@H](CC)C(=O)O)CC[C@@H]1C)[C@H]1O[C@]2(C=C[C@@H](O)[C@]3(CC[C@@](C)([C@H]4CC[C@](O)(CC)[C@H](C)O4)O3)O2)[C@H](C)C[C@@H]1C`
29.5 µM

Try this compound too: `O=C(N/C(=C\c1ccc(F)cc1)c1nc2ccccc2[nH]1)c1ccccc1`
> 100 µM

Try this compound too: `O=c1[nH]c2ccc(C(F)(F)F)cc2nc1C(F)(F)F`
77 µM

Try this compound too: `CCOC(=O)CN1C(=O)C(=O)N(c2ccc(OC)c3ccccc23)C1=O`
> 100 µM

Try this compound too: `C=C(CN1CCN(c2ccc(F)c(Cl)c2)CC1)c1ccc(C(=O)Nc2ccccc2N)cc1`
> 100 µM

###

Test system: BT-549 breast
Assay: NCI tumour cell line growth inhibition, 48 h
Reported TGI values for the following compounds.

[
  {
    "Compound": "O=C1CC2OCC=C3CN4CCC5(C(=O)O)C(N1)C2C3CC45 (centres undefined)",
    "Measured on": "BT-549 breast",
    "Result": "> 100 µM"
  },
  {
    "Compound": "O=C1C=CC(=O)c2c(O)c(N(CCCl)CCCl)c(Cl)c(O)c21",
    "Measured on": "BT-549 breast",
    "Result": "> 7.26 µM"
  },
  {
    "Compound": "CNC(=O)c1cc(-c2ccc(F)cc2)cc(-c2ccc(S(=O)(=O)N3CCCC3)cc2)c1N",
    "Measured on": "BT-549 breast",
    "Result": "> 25 µM"
  }
]

Give its TGI value. Item: `Cc1oc2nc(N(C)C)n3cnnc3c2c1C`
> 100 µM

###

Test system: UO-31 renal
Assay: NCI tumour cell line growth inhibition, 48 h; in the data active means GI50 below about 0.43 µM; inactive means the rest
Would you mind answering with one of these outcomes? true (active), false (inactive)

Known results for molecules:
[
  {
    "Molecule": "CSc1nc2ccc(C)cc2cc1/C=C1/C=C(c2ccccc2)NC1=O",
    "Label": "false"
  },
  {
    "Molecule": "O=S(=O)(Nc1ccc(Cl)c(Cl)c1)c1ccc(-c2cnc(C3CC3)o2)cc1",
    "Label": "false"
  },
  {
    "Molecule": "Cc1c2ccccc2c(C)n2c1nc1cc(Cl)c(Cl)cc12",
    "Label": "false"
  },
  {
    "Molecule": "CCCCCCCCc1cc(O)ccc1O",
    "Label": "false"
  }
]

Returns: the outcome recorded for COc1ccc(F)cc1-c1ccnc2[nH]c(C3=CCN(C4CCC(CC(=O)O)CC4)CC3)cc12 (stereo not given) in this assay.
true

###

System: SR leukemia
Experiment: NCI tumour cell line growth inhibition, 48 h
Reported TGI values for the following compounds.
Answer format: numeric, µM implied, no suffix.

[
  {
    "Compound": "Cc1c2ccccc2c(C)n2c1nc1cc(Cl)c(Cl)cc12",
    "TGI (µM)": 44.7
  },
  {
    "Compound": "CSc1c(C)n([O-])c2cc(Cl)c(Cl)cc2[n+]1=O",
    "TGI (µM)": 5.69
  },
  {
    "Compound": "COc1ccc(/N=N/C(=NNC(=O)c2ccc(C)cc2)c2ccc(N(C)C)cc2)cc1",
    "TGI (µM)": 88.7
  }
]

Now for another entry.
Give its TGI value. Item: CCC(C)N1CN(c2ccccc2)C2(CCN(CCCC3(c4ccc(F)cc4)OCCO3)CC2)C1=O (configuration not stated)
23.5

###

Tested on: NCI-H522 lung
Assay: NCI tumour cell line growth inhibition, 48 h; in the data active means GI50 below about 0.43 µM; inactive means the rest
Would you mind answering with one of these outcomes? yes (1) = active, no (0) = inactive

[
  {
    "Chemical string": "N=C1C=C(N)C(=O)c2ccccc21",
    "Label": "yes (1)"
  },
  {
    "Chemical string": "Cc1nc2sc(C(=O)Nc3ccccc3)c(N)c2cc1C(=O)c1ccccc1",
    "Label": "no (0)"
  }
]

Now examine the next entry.
Returns: the outcome recorded for `N#Cc1cc2c(cc1Cl)SC(=Nc1ccccc1)N(S(=O)(=O)c1ccc(Br)s1)S2(=O)=O` in this assay.
no (0)

###

Test system: COLO 205 colon
Test: NCI tumour cell line growth inhibition, 48 h
Reported TGI values for the following compounds.

Example cases with answers are listed next.
[
  {
    "Compound": "CC1=CC(=O)N2C(OC[C@@H]2c2ccccc2)O1 (stereo not given in full)",
    "TGI": "> 100 µM"
  },
  {
    "Compound": "O=C1Nc2ccccc2SC1=C(C(=O)c1ccccc1)C(=O)c1ccccc1",
    "TGI": "> 88 µM"
  },
  {
    "Compound": "CCN(CCC#N)C(=O)Nc1ccccc1",
    "TGI": "> 100 µM"
  },
  {
    "Compound": "Fc1ccc2c(c1)nc1n2C(c2c(F)cccc2F)SC1 (stereo not given)",
    "TGI": "> 100 µM"
  },
  {
    "Compound": "O=C(/C=C/c1ccc(Cl)cc1Cl)c1ccc(Cl)cc1Cl",
    "TGI": "> 65.4 µM"
  }
]

Now for another entry.
GET /values?readout=TGI&system=COLO 205 colon&item= `CCSc1nc(N)c2cnn(CC)c2n1`
> 100 µM

###

Test system: EKVX NSCLC
Experiment: NCI tumour cell line growth inhibition, 48 h
Quantity kind: GI50

Give its GI50 value. Item: `CC(=O)/C(=C/N1CCN(C(=O)c2ccco2)C1=S)C(=O)c1ccccc1`
7.9 µM

Try this compound too: `CC[C@@H](C(=O)[C@@H](C)[C@@H](O)[C@H](C)[C@@H]1O[C@@H]([C@@H](CC)C(=O)O)CC[C@@H]1C)[C@H]1O[C@]2(C=C[C@@H](O)[C@]3(CC[C@@](C)([C@H]4CC[C@](O)(CC)[C@H](C)O4)O3)O2)[C@H](C)C[C@@H]1C`
1.11 µM

Try this compound too: `O=S(=O)(Nc1ccc(Cl)c(Cl)c1)c1ccc(-c2cnc(C3CC3)o2)cc1`
1.15 µM

Try this compound too: `c1ccc(-c2cc3n4c(-c5ccccc5)nn(-c5ccccc5)c4cnc-3n2)cc1`
17 µM

###

Reported TGI values for the following compounds.
Test system: SK-MEL-28 melanoma
Assay: NCI tumour cell line growth inhibition, 48 h

Example cases with answers are listed next.
[
  {
    "Chemical string": "Cc1cc(OCc2nnc3n2N=C(c2cc(F)c(Cl)cc2Cl)/C(=C/c2ccc(-c4ccc(Cl)cc4)o2)S3)ccc1Cl",
    "TGI": "> 50 µM"
  },
  {
    "Chemical string": "CCOC(=O)Cc1cc(=O)[nH]c(-n2[nH]c(C)c(CCO)c2=O)n1",
    "TGI": "> 100 µM"
  }
]

Now for another entry.
Give its TGI value. Item: `COc1ccc(/C=C/C(=O)c2ccc(Nc3nc(Nc4ccc(F)cc4)nc(Nc4ccc(F)cc4)n3)cc2)cc1`
> 100 µM
